tested on: A549 NSCLC; assay: NCI tumour cell line growth inhibition, 48 h

molecule	TGI
Clc1nncc2sc(-c3ccccc3)nc12	> 100 µM
COc1cccc(COc2cc(-n3cnc4ccccc43)sc2C(N)=O)c1	> 25 µM
C/C(=N\Nc1nc2ccccc2s1)c1ccc2ccccc2n1	> 100 µM
COC(=O)[C@H](Cc1ccccc1)NC(=O)N(CCC#N)CCN(C(=O)N[C@@H](Cc1ccccc1)C(=O)OC)c1ccccc1	> 100 µM
CC(C)(C)OC(=O)NC1CCCC1=O (configuration not stated)	> 100 µM
CC1=NN(C(=O)c2ccncc2)C(=O)C1N=Nc1ccc(F)cc1 (configuration not stated)	> 100 µM
COC(=O)C1(O)C(c2ccccc2)=NC2(C)CCCC21 (configuration not stated)	> 100 µM
CSc1nc2c(ncn2C2OC(CO)C(O)C(O)C2O)c(=O)[nH]1 (configuration not stated)	> 100 µM
O=C(OCC1OC(n2nc(Cn3nnc(-c4cccnc4)n3)n(-c3cccc4ccccc34)c2=S)C(OC(=O)c2ccccc2)C1OC(=O)c1ccccc1)c1ccccc1 (configuration not stated)	> 100 µM
CON(C)C(=O)C1CCCO1 (configuration not stated)	> 100 µM
COc1cc(/C=C2\CCC(C)/C(=C\c3cc(OC)c(OC)c(OC)c3)C2=O)cc(OC)c1OC (configuration not stated)	> 100 µM
O=[N+]([O-])c1ccc(-c2cc3c(Nc4ccc(Cl)c(C(F)(F)F)c4)ncnc3s2)cc1	> 100 µM

---

Collected TGI values appear next to each entry.
test system: NCI-H23 lung; assay: NCI tumour cell line growth inhibition, 48 h
measured_parameter: TGI

> print(dat)
                                   compound  observed.measurement
1  COC(=O)C1C(=O)N(CCc2c[nH]c3ccccc23)C[C@@H]2CCC(=O)C[C@H]12 (stereo partly specified)              > 100 µM
2  COc1ccc(-c2cnoc2-c2cc(OC)c3c(c2)OCCO3)cc1              > 100 µM
3  c1ccc([P+](CCCCCCCC[P+](c2ccccc2)(c2ccccc2)c2ccccc2)(c2ccccc2)c2ccccc2)cc1             > 52.8 µM
4  Cc1nc(-c2cccnc2)sc1C(=O)/C=C/c1cccc([N+](=O)[O-])c1              > 100 µM
5                CCn1c(-c2nonc2N)nc2ccncc21               > 25 µM
6  O=C1OC(c2ccccc2)N(C(=O)c2ccccc2)C1Cc1ccc(OCc2ccccc2)cc1 (stereo unspecified)              > 100 µM

---

tested on: SF-268 CNS; test: NCI tumour cell line growth inhibition, 48 h
Below, each of the compounds is paired with its reported TGI value.
measured_parameter: TGI

> print(dat)
                                   compound  measured.target  measured.parameter  observed.measurement
1              CCNc1ncnc2sc(SCc3ccccc3)nc12       SF-268 CNS                 TGI              > 100 µM
2  COc1ccc(C(=O)c2nc3ccccc3n2CC(=O)c2ccc(Cl)cc2)cc1       SF-268 CNS                 TGI              > 100 µM
3  Cc1ccc(-n2nc(C(C)(C)C)cc2NC(=O)NCc2cc(F)ccc2Oc2ccc3c(cnn3CCO)c2)cc1       SF-268 CNS                 TGI              > 100 µM
4  COc1ccc(Oc2cnn(C(Br)(Br)C(C)=O)c(=O)c2Br)cc1       SF-268 CNS                 TGI                 29 µM
5  COc1cc(C2c3cc4c(cc3[C@@H](Nc3ccc5c(c3)OCCO5)C3COC(=O)[C@H]23)OCO4)cc(OC)c1O (stereo partly drawn)       SF-268 CNS                 TGI               23.1 µM
6  Nc1ccccc1C(=O)C(Br)C(Br)c1ccc2c(c1)OCO2 (stereo not drawn)       SF-268 CNS                 TGI               91.5 µM
7  CC(C)C(N)C(=O)NC(CCC(=O)NCCCCC(N)C(=O)NCCCNc1ccc([N+](=O)[O-])c2[nH]c3ccccc3c(=O)c12)C(N)=O (stereo not drawn)       SF-268 CNS                 TGI              > 100 µM
8  O=[N+]([O-])c1ccc(-c2cc3c(Nc4ccc(Cl)c(C(F)(F)F)c4)ncnc3s2)cc1       SF-268 CNS                 TGI              > 100 µM

---

test system: HCT-116 colon; assay: NCI tumour cell line growth inhibition, 48 h
The entries below come with measured TGI values attached.
measured_parameter: TGI

> print(dat)
                                    compound  observed.measurement
 1  COc1c(O)c(OC)c2oc(-c3ccc(O)cc3)c(OC)c(=O)c2c1O              > 100 µM
 2  O=[N+]([O-])c1cccc2c(N=Nc3ccc4ccccc4c3O)c(O)cc(S(=O)(=O)O)c12              > 100 µM
 3  CCOP(=O)(OCC)OC1CC(n2cc(C)c(=O)n(C)c2=O)OC1CO[Si](C)(C)C(C)(C)C (centres undefined)              > 100 µM
 4  O=C1OC(c2ccccc2)N(C(=O)c2ccccc2)C1Cc1ccc(OCc2ccccc2)cc1 (centres undefined)              > 100 µM
 5  CC(C)C(N)C(=O)NC(CCC(=O)NCCCCC(N)C(=O)NCCCNc1ccc([N+](=O)[O-])c2[nH]c3ccccc3c(=O)c12)C(N)=O (centres undefined)              > 100 µM
 6  COc1cc([N+](=O)[O-])c(OC)c2c(Nc3ccc(S(=O)(=O)O)c4cc(S(=O)(=O)O)cc(S(=O)(=O)O)c34)cc(C)nc12              > 100 µM
 7  CCOC(=O)N1CCN(CCCCCOc2ccccc2C2CCCCC2)CC1               9.65 µM
 8  Cc1c(C(=O)/C=C/c2ccccc2[N+](=O)[O-])[n+](=O)c2ccccc2n1[O-]               16.5 µM
 9  C=C1C2Oc3ccccc3C1N(c1ccccc1)O2 (centres undefined)               54.2 µM
10  COc1cc(/C=C2\CCC(C)/C(=C\c3cc(OC)c(OC)c(OC)c3)C2=O)cc(OC)c1OC (centres undefined)              > 100 µM
11             O=C1C2=C(CCC2)Nc2cccc3ncn1c23              > 100 µM
12     Cc1cc(C)n(C2=NS(=O)(=O)c3ccccc3N2C)n1              > 100 µM
13  Cc1ccc(C)c(N2C(=O)C(=O)C(c3nc4ccccc4s3)C(=Nc3cccc4c(=O)[nH][nH]c(=O)c34)C2=O)c1 (centres undefined)              > 100 µM
14  O=C1/C(=C/c2ccc([N+](=O)[O-])cc2)COc2ccc(O)cc21               3.43 µM
15  C[C@]12CC[C@@H]3c4ccc(O)cc4CC[C@H]3[C@@H]1C/C(=C\c1ccc(C#N)cc1)C2=O              > 100 µM
16  COC(=O)c1ccc2c(c1)C(=O)c1c-2n(CCCN=[N+]=[N-])c(=O)c2cc([N+](=O)[O-])ccc12              > 100 µM
17  CSc1nc2c(ncn2C2OC(CO)C(O)C(O)C2O)c(=O)[nH]1 (centres undefined)              > 100 µM
18  COc1cccc2c1OCC1Cc3ccccc3OC21 (centres undefined)              > 100 µM
19  c1ccc(C2CC(=NC3CCCCC3)Nc3ccccc3N2)cc1 (centres undefined)              > 100 µM
20  O=C(/C=C/c1cccc(O)c1)c1cccc(-n2cc(-c3ccc4ccccc4c3)[nH]c2=O)c1               1.45 µM
21  COc1ccc(Oc2cnn(C(Br)(Br)C(C)=O)c(=O)c2Br)cc1               19.2 µM
22      C/C(=N\Nc1nc2ccccc2s1)c1ccc2ccccc2n1              > 100 µM
23  COc1ccc2c(NCCCCCCNc3c4ccccc4nc4cc(OC)ccc34)c3ccccc3nc2c1              0.333 µM
24                CCn1c(-c2nonc2N)nc2ccncc21               > 25 µM
